molecular target: Vascular endothelial growth factor receptor 1 (Homo sapiens, UniProt P17948)
Sequence (P17948 whole entry): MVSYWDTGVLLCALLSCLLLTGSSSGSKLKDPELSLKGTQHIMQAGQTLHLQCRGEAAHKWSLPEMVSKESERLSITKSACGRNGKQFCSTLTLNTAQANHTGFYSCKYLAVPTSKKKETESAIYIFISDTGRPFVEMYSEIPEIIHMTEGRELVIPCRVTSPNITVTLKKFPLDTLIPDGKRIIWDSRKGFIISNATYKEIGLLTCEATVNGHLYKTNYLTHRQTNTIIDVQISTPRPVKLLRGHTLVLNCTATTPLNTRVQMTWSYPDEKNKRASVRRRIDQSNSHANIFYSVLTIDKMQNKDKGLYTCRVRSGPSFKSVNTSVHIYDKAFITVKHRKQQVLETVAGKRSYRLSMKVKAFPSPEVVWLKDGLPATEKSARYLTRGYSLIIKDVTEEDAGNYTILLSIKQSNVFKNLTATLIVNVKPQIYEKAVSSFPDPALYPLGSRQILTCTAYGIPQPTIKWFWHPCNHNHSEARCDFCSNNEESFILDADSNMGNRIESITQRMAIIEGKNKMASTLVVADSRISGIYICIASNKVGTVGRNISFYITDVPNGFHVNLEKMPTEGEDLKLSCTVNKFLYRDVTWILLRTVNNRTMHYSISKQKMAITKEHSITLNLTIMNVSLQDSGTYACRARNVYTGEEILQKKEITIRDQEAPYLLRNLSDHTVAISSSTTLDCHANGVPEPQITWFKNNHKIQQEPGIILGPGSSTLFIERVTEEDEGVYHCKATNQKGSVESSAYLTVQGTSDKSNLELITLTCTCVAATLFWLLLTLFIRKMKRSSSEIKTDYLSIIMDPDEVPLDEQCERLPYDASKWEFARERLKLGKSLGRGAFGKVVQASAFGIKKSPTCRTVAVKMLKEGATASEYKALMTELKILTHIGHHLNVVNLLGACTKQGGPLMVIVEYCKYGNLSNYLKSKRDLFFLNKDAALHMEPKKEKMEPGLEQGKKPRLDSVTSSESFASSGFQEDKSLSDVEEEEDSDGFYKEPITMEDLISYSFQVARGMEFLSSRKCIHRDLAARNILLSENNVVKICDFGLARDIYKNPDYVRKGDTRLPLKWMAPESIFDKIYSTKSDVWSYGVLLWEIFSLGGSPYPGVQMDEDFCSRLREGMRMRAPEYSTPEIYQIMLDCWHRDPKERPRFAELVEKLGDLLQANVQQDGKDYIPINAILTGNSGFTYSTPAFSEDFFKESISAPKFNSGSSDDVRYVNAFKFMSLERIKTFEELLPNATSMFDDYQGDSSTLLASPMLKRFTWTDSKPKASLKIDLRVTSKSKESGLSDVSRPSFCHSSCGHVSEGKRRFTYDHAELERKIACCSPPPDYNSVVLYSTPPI
VALUE_KIND: IC50 (nM)
# unit: nM | format: bare number

// query Dear colleague, please send me the reported IC50 for `COc1cc2nccc(Oc3ccc(NC(=O)NC4CC4)c(Cl)c3)c2cc1C(N)=O` when you can.
// result 22

----------
Would you kindly list IC50 for each of these compounds?
tested on: MCF7; assay: Antitumor activity against human MCF7 cells by MTT assay; assay type: functional, cell-based

// query Dear colleague, please send me the reported IC50 for CCOC(=O)C1=C(C)OC(N)=C(C#N)C1c1ccc(OC2CCCC2)cc1 (centres undefined) when you can.
// result 7.5 µM

// query Dear colleague, please send me the reported IC50 for `CC(=O)/C=C/c1ccc(OC2CCCC2)cc1` when you can.
// result 40.9 µM

// query Dear colleague, please send me the reported IC50 for Cc1ccc(C2=NN(c3ccccc3)C(c3ccc(OC4CCCC4)cc3)C2)cc1 (centres undefined) when you can.
// result 5.6 µM

// query Dear colleague, please send me the reported IC50 for `O=C1CCC/C1=C\c1ccc(OC2CCCC2)cc1` when you can.
// result > 100 µM

// query Dear colleague, please send me the reported IC50 for `Cc1ccc(C(=O)/C=C/c2ccc(OC3CCCC3)cc2)cc1` when you can.
// result 36.4 µM

// query Dear colleague, please send me the reported IC50 for `CCN1CCC(=O)/C(=C/c2ccc(OC3CCCC3)cc2)C1` when you can.
// result 13.7 µM

// query Dear colleague, please send me the reported IC50 for `CN1CCC(=O)/C(=C/c2ccc(OC3CCCC3)cc2)C1` when you can.
// result 18.1 µM

// query Dear colleague, please send me the reported IC50 for `O=C1CCCCC/C1=C\c1ccc(OC2CCCC2)cc1` when you can.
// result 64.7 µM

// query Dear colleague, please send me the reported IC50 for `O=C1CCCC/C1=C\c1ccc(OC2CCCC2)cc1` when you can.
// result 49.4 µM

----------
system: HepG2; test: Cytotoxicity against human HepG2 cells after 24 hrs by MTT assay; format: functional, cell-based; settings: HepG2, 24 h
VALUE_KIND: IC50 (µM)
# unit: µM | format: bare number

// query Dear colleague, please send me the reported IC50 for `O=C(Nc1ccc(Cl)cc1)Nc1ccc(Oc2ncnc3cc(F)ccc23)cc1` when you can.
// result 8.08

----------
test system: PLC; experiment: Cytotoxicity against human PLC cells; assay type: functional, cell-based
VALUE_KIND: IC50
Kindly format the answer as number then unit.

// query Dear colleague, please send me the reported IC50 for `O=C(Nc1ccc(-n2ncc3cc(C(F)(F)F)ccc32)cc1)Nc1ccc(C(F)(F)F)cc1` when you can.
// result 4.34 µM

----------
Would you kindly list IC50 for each of these compounds?
tested on: HepG2; test: Antitumor activity against human HepG2 cells by MTT assay; assay type: functional, cell-based
# unit: µM | format: bare number

// query Dear colleague, please send me the reported IC50 for `O=C1CCCCC/C1=C\c1ccc(OC2CCCC2)cc1` when you can.
// result 71.3

// query Dear colleague, please send me the reported IC50 for Cc1ccc(C2=NN(c3ccccc3)C(c3ccc(OC4CCCC4)cc3)C2)cc1 (centres undefined) when you can.
// result 7.2

// query Dear colleague, please send me the reported IC50 for `CCN1CCC(=O)/C(=C/c2ccc(OC3CCCC3)cc2)C1` when you can.
// result 13

// query Dear colleague, please send me the reported IC50 for `Cc1ccc(C(=O)/C=C/c2ccc(OC3CCCC3)cc2)cc1` when you can.
// result 20

// query Dear colleague, please send me the reported IC50 for CCOC(=O)C1=C(C)OC(N)=C(C#N)C1c1ccc(OC2CCCC2)cc1 (centres undefined) when you can.
// result 8

// query Dear colleague, please send me the reported IC50 for `CC(=O)/C=C/c1ccc(OC2CCCC2)cc1` when you can.
// result 27.3

// query Dear colleague, please send me the reported IC50 for `O=C1CCCC/C1=C\c1ccc(OC2CCCC2)cc1` when you can.
// result 55.4

// query Dear colleague, please send me the reported IC50 for `CN1CCC(=O)/C(=C/c2ccc(OC3CCCC3)cc2)C1` when you can.
// result 15.9
